test system: Malme-3M; assay: NCI tumour cell line growth inhibition, 48 h
Calls of active or inactive are those of the source. Rule as the data show it: active = GI50 up to about 1.1 µM and inactive = higher.
Assign a class; possible classes are TRUE (active), FALSE (inactive)

Here are 8 molecules together with their reported answers.
molecule | answer.label
COC12C(COC(=O)NCCO)C3=C(C(=O)C(C)=C(N)C3=O)N1CC1NC12 (configuration not stated) | FALSE
CC(=O)OCC(OC(C)=O)C(OC(C)=O)C(OC(C)=O)C(=O)CNn1c(-c2ccc(C)cc2)nc2ccccc2c1=O (configuration not stated) | FALSE
O=C1C[C@@H]2[C@@H](C=CC23CC3)N1O | FALSE
CNC(=O)C1(N)c2ccccc2C=Cc2ccccc21 | FALSE
COCCOCCOC1=CC(=O)c2c(O)ccc(O)c2C1=O | TRUE
O=C(NNC(=S)Nc1ccccc1)c1csc(NC(=S)NC2CCCCC2)n1 | FALSE
Nc1nc(SCCC/C=C/B(O)O)nc2c1ncn2C1OC(COP(=O)(O)O)C(O)C1O (configuration not stated) | FALSE
CN(C)CCS/C(=N\c1ccccc1)n1cccc1 | FALSE

Prompt: Tell me the recorded outcome of this test for CSC1C=C(C(C)C)CCC1(C)SC (configuration not stated) .
Completion: FALSE

Prompt: What did this assay record as the result for Cn1c(N/N=C/c2ccccc2)nc(-c2ccc3c(c2)OCO3)c(C#N)c1=O ?
Completion: FALSE

Prompt: For c1ccc(CSC(SCc2ccccc2)c2cccc3ccccc23)cc1 , which call appears in the assay record?
Completion: FALSE

Prompt: Could you please tell me the result logged for O=C(/C=C/c1ccc(O)c(O)c1)c1cc(O)cc(O)c1 in this assay?
Completion: FALSE
